B1: FBXO34 (parent)
chain: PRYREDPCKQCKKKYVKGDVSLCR

Variants of: B1
experimental_protocol: protein stability index of a GFP-peptide fusion (GPS, HEK-293T) (PSI 1-6); higher = more stable;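 note: lentivirally expressed fusions sorted by FACS into six bins by GFP to DsRed ratio, PSI derived from sequencing read proportions per bin multiplied by bin number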
conditions_used: c terminus: a fixed tail appended

| mutation_descriptor | protein stability index |
| --- | --- |
| R2D | 3.03 |
| R2V | 2.98 |
| C11M | 3.01 |
